- System: pLai RLuc reporter virus
- ASSAY: microbe, parasite or virus in culture
- Assay type: cell-based, HIV
- COND: Human immunodeficiency virus 1, 72 h, read-out: Antiviral Serum Shift RLuc CCM, CCM (RPMI media, 10% FBS, 1% P/S), 72-h incubation
- Description: To quantify the amount of protein binding to human serum, compounds were serially diluted (1:3) in DMSO and acoustically transferred onto 384-well assay plates via a Labcyte ECHO robot. Each plate contained up to 8 test compounds, including negative and positive controls, (DMSO, 5 μM AZT respectively). […] After a 72-h incubation in a humidified and temperature controlled incubator (37° C.), Renilla Glo (Promega) was added to all assay plates and chemiluminescence read using an Envision plate-reader. […]
Decide using EC50 alone. Strictly below 0.3 nM: 1. Equal to or above 0.3 nM: -1.

Examples from the recorded data:
[[record]]
compound = "CC[C@@H]1CCC[C@H]2CN1C(=O)c1c(O)c(=O)c(C(=O)NCc3c(F)cc(F)cc3F)cn12 [Example 130-1]"
qualitative_label = 1

[[record]]
compound = "O=C(NCc1ccc(F)cc1F)c1cn2c(c(O)c1=O)C(=O)N1CC3CC3CC2C1 (single isomer, unassigned) [Example 42-1]"
qualitative_label = 1

[[record]]
compound = "O=C(NCc1ccc(F)c(Cl)c1F)c1cn2c(c(O)c1=O)C(=O)N1CCC=C(F)[C@@H]2C1 (single isomer, unassigned) [Example 123-2]"
qualitative_label = 1


Input line: Here's an entry: O=C(NCc1ccc(F)cc1F)c1cn2c(c(O)c1=O)C(=O)N1CC2CCc2cc(F)ccc21 (single isomer, unassigned) [Example 55-2] . Is its EC50 below 0.3 nM?
Output line: -1

Input line: Lab log: compare recorded EC50 with 0.3 nM; is it strictly lower for C[C@@H]1CO[C@H](C)[C@H]2CN1C(=O)c1c(O)c(=O)c(C(=O)NCc3c(F)cc(F)cc3F)cn12 [Example 196] ?
Output line: -1
